experimentalTarget: CDK4/D1 (Homo sapiens, UniProt P11802)
Sequence (P11802 whole entry): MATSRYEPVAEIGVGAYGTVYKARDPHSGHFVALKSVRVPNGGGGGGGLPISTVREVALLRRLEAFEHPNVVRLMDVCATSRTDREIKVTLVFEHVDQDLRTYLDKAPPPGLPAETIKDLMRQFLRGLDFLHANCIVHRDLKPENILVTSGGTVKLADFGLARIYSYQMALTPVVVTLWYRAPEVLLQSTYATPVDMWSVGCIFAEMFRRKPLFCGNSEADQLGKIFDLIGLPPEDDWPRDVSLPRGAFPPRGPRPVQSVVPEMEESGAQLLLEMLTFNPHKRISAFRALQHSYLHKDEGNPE
Sequence (P24385 whole entry partner): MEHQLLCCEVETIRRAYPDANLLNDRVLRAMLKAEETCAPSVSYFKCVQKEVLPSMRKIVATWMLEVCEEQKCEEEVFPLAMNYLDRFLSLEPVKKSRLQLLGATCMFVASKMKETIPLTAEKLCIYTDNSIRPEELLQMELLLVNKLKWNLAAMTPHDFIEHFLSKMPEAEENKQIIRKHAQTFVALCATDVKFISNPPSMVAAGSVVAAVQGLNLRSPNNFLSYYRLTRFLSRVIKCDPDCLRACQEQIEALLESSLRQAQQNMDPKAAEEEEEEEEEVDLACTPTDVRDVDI
experiment: ADP Glo Kinase assay CDK4/D1
Assay type: biochemical
reportedConditions: CDK4D1; compound at 10 μM; read-out: residual activity (%) at 10 μM CDK4D1
endpointLabel: remaining activity at 10 µM (%)

>  <compound>
CCOc1ccc(Nc2ccc3ncc(-c4nc(N[C@H]5CC[C@H](N)CC5)ncc4C)n3c2)cn1

>  <value>
31

$$$$
>  <compound>
Fc1cnc(N[C@H]2CC[C@H](NC3CCOCC3)CC2)nc1-c1cnc2ccc(-c3ccccc3)cn12

>  <value>
3

$$$$
>  <compound>
Cc1cnc(NC2CCOCC2)nc1-c1cnc2ccc(Nc3cccnc3)cn12

>  <value>
30

$$$$
>  <compound>
Cc1cnc(N[C@H]2CC[C@H](NS(C)(=O)=O)CC2)nc1-c1cnc2ccc(Nc3cncnc3)cn12

>  <value>
14

$$$$
>  <compound>
N[C@H]1CC[C@H](Nc2ncc(Cl)c(-c3cnc4ccc(-c5ccc(N6CCNCC6)nc5)cn34)n2)CC1

>  <value>
9

$$$$
>  <compound>
COc1cccc(-c2ccc3ncc(-c4nc(N[C@H]5CC[C@H](N)CC5)ncc4C)n3c2)c1

>  <value>
45

$$$$
>  <compound>
N[C@H]1CC[C@H](Nc2ncc(F)c(-c3cnc4ccc(Nc5cccc(F)c5)cn34)n2)CC1

>  <value>
4

$$$$
>  <compound>
CS(=O)(=O)N1CCC(Nc2ncc(F)c(-c3cnc4ccccn34)n2)CC1

>  <value>
-16

$$$$
>  <compound>
Cc1cnc(N[C@H]2CC[C@H](N)CC2)nc1-c1cnc2ccc(-c3cccnc3)cn12

>  <value>
17

$$$$
>  <compound>
Cc1cnc(NC2CCC(N(C)C)CC2)nc1-c1cnc2ccc(-c3ccccc3)cn12 (stereo not shown)

>  <value>
54

$$$$
